The reported measurements were obtained from the kinase profiling compilation of Christmann-Franck et al. (2016).

The reader will find reported residual activity values listed item by item below.
testedTarget: CLK4 (human)
assayNotes: radiometric filter-binding kinase assay, Kinase HotSpot
conditionSummary: compound 0.5 µM; ATP 10 µM
propertyName: residual activity (%)

>>> recordedresult("Nc1ncnc2[nH]nc(Nc3ccc(F)cc3)c12")
88.7
>>> recordedresult("CCCC(=O)Oc1ccc2[nH]c(C(=O)c3cc4ccccc4[nH]3)cc2c1")
90.2
>>> recordedresult("CNC(=O)c1cc(Oc2ccc(NC(=O)Nc3ccc(Cl)c(C(F)(F)F)c3)cc2)ccn1")
95.2
>>> recordedresult("CC(=O)c1ccc(N2CCOCC2)cc1O")
111

====

testedTarget: ULK3 (human)
assayNotes: radiometric filter-binding kinase assay, Kinase HotSpot
conditionSummary: compound 0.5 µM; ATP 10 µM
The reader will find reported residual activity values listed item by item below.
propertyName: residual activity (%)

>>> recordedresult("O=C1NC(=O)/C(=C/c2ccc3c(c2)OC(F)(F)O3)S1")
109
>>> recordedresult("CCC(=O)Nc1ccc2ncnc(Nc3cccc(Br)c3)c2c1")
97.5
>>> recordedresult("COc1cc2ncnc(Nc3cccc(Cl)c3)c2cc1OC")
77.3
>>> recordedresult("Cc1[nH]c(/C=C2\\C(=O)Nc3ccc(S(=O)(=O)N(C)c4cccc(Cl)c4)cc32)c(C)c1C(=O)N1CCN(C)CC1")
55.3
>>> recordedresult("N#C/C(=C(/N)Sc1ccc(N)cc1)c1ccccc1C(F)(F)F")
106
>>> recordedresult("CCN(CC)CCNC(=O)c1c(C)[nH]c(/C=C2\\C(=O)Nc3ccc(Cl)cc32)c1C")
21.6
>>> recordedresult("Nc1ccc2ncnc(NCCc3ccc(Oc4ccccc4)cc3)c2c1")
112
>>> recordedresult("O=C1NC(=O)C(c2cn(CCCn3ccnc3)c3ccccc23)=C1Nc1ccccc1")
84.7
>>> recordedresult("Oc1cccc(-c2nc(N3CCOCC3)c3oc4ncccc4c3n2)c1")
99.7
